The reported measurements were obtained from patent US20260070987A1.

test.target: equine FcRn (large alpha subunit p51) / equine beta-2-microglobulin complex, biotinylated (equine) (UniProt P30441)
test: SPR (Biacore), pH 6

| binder | Kd |
| --- | --- |
| equine IgG4 D312V (antibody, part only; not given: variable domains, not shown: another chain or arm of the molecule) constant: ASTTAPKVFPLASHSAATSGSTVALGCLVSSYFPEPVTVSWNSGALTSGVHTFPSVLQSSGLYSLSSMVTVPASSLKSQTYICNVAHPASSTKVDKKIVIKECNGGCPAECLQVGPSVFIFPPKPKDVLMISRTPTVTCVVVDVGHDFPDVQFNWYVDGVETHTATTEPKQEQFNSTYRVVSVLPIQHKVWLSGKEFKCKVNNKALPAPVERTISKPTGQPREPQVYVLAPHRDELSKNKVSVTCLVKDFYPTDIDIEWKSNGQPEPETKYSTTPAQLDSDGSYFLYSKLTVETNRWQQGTTFTCAVMHEALHNHYTEKSVSKSPGK | 31.1 nM |
